- Tested on: Botrtyis cinerea (Bc)
- ASSAY TEXT: In vitro pathogen growth inhibition assay, Bc
- Type: cell-based
- CONDITION SET: 48 h, ≥90% growth inhibition; 48 hours; vs 2% DMSO control; read-out: Compound Concentration (ppm) sufficient for ≥90% inhibition of Bc
Give measured IC90 for each item. Keep answers brief.
A complete answer gives the number followed by the unit.

Look up IC90: `COCCO[C@@H](Cn1c(=O)n(C(C)(C)C(=O)NC(C)C)c(=O)c2c(C)c(-n3nccn3)sc21)c1cc(F)ccc1C`
2 µg/mL

Reported IC90, molecule `CCOC(=O)c1sc2c(c1C)c(=O)n(C(C)(C)C(=O)NC(C)C)c(=O)n2C[C@H](OC[C@@H](C)C#N)c1cc(F)ccc1OC` : ____
0.4 µg/mL

Please report the recorded IC90 for `CCc1ccc(F)cc1[C@H](Cn1c(=O)n(C(C)(C)C(=O)NC(C)C)c(=O)c2c(C)c(-n3nccn3)sc21)OCCO` .
0.4 µg/mL

Fill in: IC90 of `CCOC(=O)c1sc2c(c1C)c(=O)n(C(C)(C)C(=O)NC(C)C)c(=O)n2C[C@H](OCC(C)(C)C#N)c1ccccc1OC` is ___
0.4 µg/mL

Given `CCNC(=O)C(C)(C)n1c(=O)c2c(C)c(-n3nccn3)sc2n(C[C@H](O)c2cc(F)ccc2OC)c1=O` , state its recorded IC90.
2 µg/mL

Entry `COc1ccc(F)cc1[C@@H](O)Cn1c(=O)n([C@H](C)C(=O)N2CCCC2)c(=O)c2c(C)c(-n3nccn3)sc21` : reported IC90 = ?
2 µg/mL

Consider the molecule `CCNC(=O)C(C)(C)n1c(=O)c2c(C)c(-n3nccn3)sc2n(C[C@H](OC(C)=O)c2cc(F)ccc2OC)c1=O` and give its measured IC90.
2 µg/mL

So what does the record say about IC90 for `CCOC(=O)c1sc2c(c1C)c(=O)n([C@@H](C)C(=O)N1CCCC1)c(=O)n2C[C@H](OCCC#N)c1cc(F)ccc1OC` ?
10 µg/mL

What does the record list as IC90 for `CC(=O)Oc1ccccc1[C@H](Cn1c(=O)n(C(C)(C)C(=O)NC(C)C)c(=O)c2c(C)c(-n3nccn3)sc21)OCCC#N` ?
2 µg/mL

State the recorded IC90 for this entry: `CNC(=O)C(C)(C)n1c(=O)c2c(C)c(-n3nccn3)sc2n(C[C@H](OCCC#N)c2ccccc2OC)c1=O`
2 µg/mL

Could you tell me which IC90 is on file for `CCOC(=O)c1sc2c(c1C)c(=O)n(C(C)(C)C(=O)NC(C)C)c(=O)n2CCc1cc(F)ccc1OC` ?
2 µg/mL

Record request: IC90 value, item `CCc1ccc(F)cc1[C@H](Cn1c(=O)n(C(C)(C)C(=O)NC(C)C)c(=O)c2c(C)c(-n3nccn3)sc21)OC[C@H](C)C#N`
0.4 µg/mL

Entry under review: `CCOC(=O)c1sc2c(c1C)c(=O)n(C(C)(C)C(=O)NC(C)C)c(=O)n2C[C@H](OCC#N)c1cc(F)ccc1OC` . Reported IC90?
0.4 µg/mL
